# studyTarget: T1, Pub1p R3 (RRM3, TRRM) (Saccharomyces cerevisiae, UniProt P32588 315-414)
# T1 sequence: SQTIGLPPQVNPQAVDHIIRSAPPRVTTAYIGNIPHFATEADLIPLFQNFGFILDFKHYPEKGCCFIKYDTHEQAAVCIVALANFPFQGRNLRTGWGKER
# assayNotes: NMR titration; 2:1 protein:RNA; 25 mM potassium phosphate pH 7.0 (6.5-7.0 in general NMR methods), 25 mM NaCl, 0.5 mM DTT, 25 C; 100 µM protein, RNA up to 400 µM (R3) or 1:1 (R12)
# experimentalContext: protein: recombinant; tags: TrxA-6xHis tag removed by TEV; chain copies: 2; single strand
measuredProperty: pKd
The quantity pKd is defined as the negative base-10 logarithm of the molar concentration.

Challenge: Query (binder): AAAAAAAAAAAAAA (ssRNA) [A14] ; field requested: pKd
Response given: 4.11

Challenge: Query (binder): UUUUUUUUUUUUUU (ssRNA) [U14] ; field requested: pKd
Response given: 5.66
